- Tested target: human serum albumin (HSA) (human)
- Protocol text: SPR Biacore T200, fusion protein captured by anti-VHH antibody, albumin as analyte
Observed property: pKd
For clarity, pKd is expressed as the negative log10 of concentration in mol/L.

Find the recorded pKd belonging to 0054 (other, also called positive control 0054; positive control molecule 0054) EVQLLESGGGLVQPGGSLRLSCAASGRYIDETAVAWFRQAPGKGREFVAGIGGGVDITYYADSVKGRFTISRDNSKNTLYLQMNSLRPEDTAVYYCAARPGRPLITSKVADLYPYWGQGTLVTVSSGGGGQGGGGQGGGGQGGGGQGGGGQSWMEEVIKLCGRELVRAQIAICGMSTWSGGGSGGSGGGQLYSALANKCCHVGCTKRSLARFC and report it.
7.80

Reference source: patent US20250312444A1
